Target: Prolyl hydroxylase EGLN2 (Homo sapiens)
Sequence (Q96KS0 whole entry): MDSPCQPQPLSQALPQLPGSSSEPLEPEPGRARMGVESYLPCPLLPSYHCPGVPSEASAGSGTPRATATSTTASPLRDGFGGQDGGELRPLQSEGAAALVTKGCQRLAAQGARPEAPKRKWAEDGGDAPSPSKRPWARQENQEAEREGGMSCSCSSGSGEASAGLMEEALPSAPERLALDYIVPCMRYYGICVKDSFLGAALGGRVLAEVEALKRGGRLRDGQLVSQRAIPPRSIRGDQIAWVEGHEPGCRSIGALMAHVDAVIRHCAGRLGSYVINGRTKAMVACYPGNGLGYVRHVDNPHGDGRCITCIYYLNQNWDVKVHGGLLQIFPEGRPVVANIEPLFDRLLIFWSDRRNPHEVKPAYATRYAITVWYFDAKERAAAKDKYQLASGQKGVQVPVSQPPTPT
Test: Inhibition of human recombinant HIF PHD1
Quantity measured: pKi
Numbers only, as −log10 of the molar value.

**Q:** Can you share its pKi? I mean this compound: O=C(O)c1ccnc(C(=O)O)c1
**A:** 5.15

---

Assay: Inhibition of human collagene prolyl-4-hydroxylase
Quantity measured: Ki (nM)
Answers are plain numbers, in nM.

O=C(O)c1ccnc(C(=O)O)c1 ... 2000

Proceeding to the next compound to report its Ki.
**Q:** Can you share its Ki? I mean this compound: O=C(O)c1ccc(C(=O)O)nc1
**A:** 800

---

Target: UniProtKB Q9GZT9
Sequence (Q9GZT9 whole entry): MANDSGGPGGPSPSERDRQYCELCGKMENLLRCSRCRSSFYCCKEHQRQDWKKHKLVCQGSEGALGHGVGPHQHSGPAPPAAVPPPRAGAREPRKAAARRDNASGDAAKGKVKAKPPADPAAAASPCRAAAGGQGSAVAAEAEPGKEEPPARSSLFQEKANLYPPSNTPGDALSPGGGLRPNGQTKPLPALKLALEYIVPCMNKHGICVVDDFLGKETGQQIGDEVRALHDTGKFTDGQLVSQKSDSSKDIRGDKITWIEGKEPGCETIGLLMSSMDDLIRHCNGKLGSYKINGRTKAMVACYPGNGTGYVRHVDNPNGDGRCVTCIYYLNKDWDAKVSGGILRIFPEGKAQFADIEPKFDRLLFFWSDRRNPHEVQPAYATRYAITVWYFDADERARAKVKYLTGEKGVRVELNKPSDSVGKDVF
Test: Inhibition of 2-oxoglutarate-dependent human recombinant HIF PHD2 preincubated for 1 hr
Quantity measured: pIC50
Give bare numbers, as −log10 of the molar value.

**Q:** Can you share its pIC50? I mean this compound: O=C(O)/C=C/C(=O)O
**A:** 5.52
